Molecular target: acetylcholinesterase (Homo sapiens (Human))
Experiment: biochemical
Type: biochemical
Settings: modified Ellman method; read-out: IC50 (nM), inhibition activity on acetylcholinesterase
metric name: IC50 (nM)

O=C1c2cc3c(cc2C2(CC2)N1CCC1CCN(Cc2ccccc2Cl)CC1)OCO3 [Compound I-21] : 653
O=C1c2cc3c(cc2C2(CC2)N1CCC1CCN(Cc2ccccn2)CC1)OCO3 [Compound I-35, phosphate] : 601

----------
Test system: learning and memory disorder of mice induced by scopolamine
Assay: Morris water maze test, senile dementia mice model induced by scopolamine
Type: in vivo
Settings: Table 4; 5 mg/kg intragastric; scopolamine 1 mg/kg
Measured latent period day 3 of individual entries
metric name: latent period day 3 (s)

CC1(C)c2cc3c(cc2C(=O)N1CCC1CCN(Cc2ccccc2F)CC1)OCO3 [Compound I-14] : 60
CC1(C)c2cc3c(cc2C(=O)N1CCC1CCN(Cc2cccc(F)c2)CC1)OCO3 [Compound I-15] : 56.5
O=C1c2cc3c(cc2C2(CC2)N1CCC1CCN(Cc2ccccn2)CC1)OCO3 [Compound I-29] : 48.0
Cc1ccccc1CN1CCC(CCN2C(=O)c3cc4c(cc3C23CC3)OCO4)CC1 [Compound I-23] : 55.5

----------
System: malonaldehyde (MDA)
Assay: Biochemical indicators of brain tissues (MDA assay) in scopolamine mice
Format: in vivo
Settings: brain tissue homogenate, 5 mg/kg
metric name: MDA(nmol/mgprot)

CC1(C)c2cc3c(cc2C(=O)N1CCC1CCN(Cc2cccc(F)c2)CC1)OCO3 [Compound I-15] : 7.41
O=C1c2cc3c(cc2C2(CC2)N1CCC1CCN(Cc2ccccn2)CC1)OCO3 [Compound I-29] : 6.66
CC1(C)c2cc3c(cc2C(=O)N1CCC1CCN(Cc2ccccc2F)CC1)OCO3 [Compound I-14] : 7.36
Cc1ccccc1CN1CCC(CCN2C(=O)c3cc4c(cc3C23CC3)OCO4)CC1 [Compound I-23] : 6.53

----------
Experiment: in vivo
Settings: mouse, in vivo, po
Measured LD50 of individual entries
metric name: LD50 (mg/kg)

Cl.O=C1c2cc3c(cc2C2(CC2)N1CCC1CCN(Cc2ccccc2)CC1)OCO3 : 171
Cl.O=C1c2cc3c(cc2C2(CC2)N1CCC1CCN(Cc2ccccn2)CC1)OCO3 : 303

----------
Biological target: acetylcholinesterase (Homo sapiens (Human))
Experiment: biochemical
Type: biochemical
Settings: modified Ellman method; read-out: IC50 (nM), inhibition activity on acetylcholinesterase
Consider the cut-off 500 nM. If the recorded IC50 is strictly smaller, the label is Condition met; if not, the label is Condition not met.

CC1c2cc3c(cc2C(=O)N1CCC1CCN(Cc2cccc(F)c2)CC1)OCO3 (centres unmarked) : Condition not met
O=C1c2cc3c(cc2C2(CC2)N1CCC1CCN(Cc2ccccc2F)CC1)OCO3 : Condition met
O=C1c2cc3c(cc2C2(CC2)N1CCC1CCN(Cc2cccc(F)c2)CC1)OCO3 : Condition met
CC1c2cc3c(cc2C(=O)N1CCC1CCN(Cc2ccc(F)cc2)CC1)OCO3 (centres unmarked) : Condition not met
COc1cccc(CN2CCC(CCN3C(=O)c4cc5c(cc4C34CC4)OCO5)CC2)c1 : Condition not met
Cc1ccccc1CN1CCC(CCN2C(=O)c3cc4c(cc3C23CC3)OCO4)CC1 : Condition not met
O=C1c2cc3c(cc2C2(CC2)N1CCC1CCN(Cc2ccc(F)cc2)CC1)OCO3 : Condition not met

----------
Target: acetylcholinesterase (Homo sapiens (Human), UniProt P22303)
Sequence (P22303 32-614, species assumed): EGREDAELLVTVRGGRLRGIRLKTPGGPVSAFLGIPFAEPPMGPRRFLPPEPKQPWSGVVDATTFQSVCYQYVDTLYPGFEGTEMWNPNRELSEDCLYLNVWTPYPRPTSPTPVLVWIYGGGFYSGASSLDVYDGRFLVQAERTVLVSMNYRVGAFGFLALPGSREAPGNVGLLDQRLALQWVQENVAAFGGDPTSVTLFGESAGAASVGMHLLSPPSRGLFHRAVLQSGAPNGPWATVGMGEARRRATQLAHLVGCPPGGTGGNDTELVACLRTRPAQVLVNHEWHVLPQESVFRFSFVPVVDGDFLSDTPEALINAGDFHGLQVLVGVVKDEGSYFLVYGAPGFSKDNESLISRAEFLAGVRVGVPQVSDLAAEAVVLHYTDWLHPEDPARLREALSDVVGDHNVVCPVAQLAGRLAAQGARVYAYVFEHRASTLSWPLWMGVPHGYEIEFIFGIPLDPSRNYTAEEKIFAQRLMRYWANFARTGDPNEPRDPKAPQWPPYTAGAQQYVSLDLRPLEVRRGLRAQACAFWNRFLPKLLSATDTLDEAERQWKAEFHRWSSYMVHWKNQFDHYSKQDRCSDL
Assay: biochemical
Type: biochemical
Conditions: IC50 (nM), inhibition activity on acetylcholinesterase, modified Ellman method
Measured IC50 of individual entries
metric name: IC50 (nM)

O=C1c2cc3c(cc2C2(CC2)N1CCC1CCN(Cc2ccccc2)CC1)OCO3 : 202
O=C1c2cc3c(cc2CN1CCC1CCN(Cc2ccccc2)CC1)OCO3 : 502

----------
Measured IC50 of individual entries
Target: acetylcholinesterase (Homo sapiens (Human))
Assay: biochemical
Type: biochemical
Settings: modified Ellman method; read-out: IC50 (nM), inhibition activity on acetylcholinesterase
metric name: IC50

CC1c2cc3c(cc2C(=O)N1CCC1CCN(Cc2ccccc2F)CC1)OCO3 (stereo not shown) : 239 nM
O=C1c2cc3c(cc2C(=O)N1CCC1CCN(Cc2cccc(F)c2)CC1)OCO3 : 269 nM
CC1(C)c2cc3c(cc2C(=O)N1CCC1CCN(Cc2cccc(F)c2)CC1)OCO3 : > 2000 nM
COc1ccccc1CN1CCC(CCN2C(=O)c3cc4c(cc3C23CC3)OCO4)CC1 : > 2000 nM

----------
System: learning and memory disorder of mice induced by scopolamine
Test: Morris water maze test, senile dementia mice model induced by scopolamine
Type: in vivo
Settings: Table 4; 5 mg/kg intragastric; scopolamine 1 mg/kg
metric name: latent period day 5 (s)

CC1(C)c2cc3c(cc2C(=O)N1CCC1CCN(Cc2ccccc2F)CC1)OCO3 : 49.9
Cc1ccccc1CN1CCC(CCN2C(=O)c3cc4c(cc3C23CC3)OCO4)CC1 : 51.8
O=C1c2cc3c(cc2C2(CC2)N1CCC1CCN(Cc2ccccn2)CC1)OCO3 : 40.4
CC1(C)c2cc3c(cc2C(=O)N1CCC1CCN(Cc2cccc(F)c2)CC1)OCO3 : 51.1

----------
Target: acetylcholinesterase (Homo sapiens (Human))
Assay: biochemical
Format: biochemical
Conditions: modified Ellman method; read-out: IC50 (nM), inhibition activity on acetylcholinesterase
Measured IC50 of individual entries
metric name: IC50

O=C1c2cc3c(cc2C(=O)N1CCC1CCN(Cc2cccnn2)CC1)OCO3 : 905 nM
O=C1c2cc3c(cc2C(=O)N1CCC1CCN(Cc2ccc(F)cc2)CC1)OCO3 : 167 nM
O=C1c2cc3c(cc2C(=O)N1CCC1CCN(Cc2ccccn2)CC1)OCO3 : 161 nM
O=C1c2cc3c(cc2CN1CCC1CCN(Cc2ccc(F)cc2)CC1)OCO3 : 658 nM
N#Cc1ccccc1CN1CCC(CCN2C(=O)c3cc4c(cc3C23CC3)OCO4)CC1 : > 2000 nM
O=C1c2cc3c(cc2C2(CC2)N1CCC1CCN(Cc2ncccn2)CC1)OCO3 : > 2000 nM
O=C1c2cc3c(cc2CN1CCC1CCN(Cc2ccccc2F)CC1)OCO3 : 483 nM
CC1(C)c2cc3c(cc2C(=O)N1CCC1CCN(Cc2ccc(F)cc2)CC1)OCO3 : > 2000 nM

----------
Measured IC50 of individual entries
Molecular target: acetylcholinesterase (Homo sapiens (Human))
Assay: biochemical
Type: biochemical
Conditions: read-out: IC50 (nM), inhibition activity on acetylcholinesterase
metric name: IC50 (nM)

Cl.O=C1c2cc3c(cc2C2(CC2)N1CCC1CCN(Cc2ccccn2)CC1)OCO3 [Compound I-33, hydrochloride] : 950
O=C1c2cc3c(cc2C(=O)N1CCC1CCN(Cc2ccccc2F)CC1)OCO3 : 80
O=C1c2cc3c(cc2C2(CC2)N1CCC1CCN(Cc2ccn[nH]2)CC1)OCO3 : 990
Cl.O=C1c2cc3c(cc2C2(CC2)N1CCC1CCN(Cc2ccccc2)CC1)OCO3 [Compound I-34, hydrochloride] : 197
O=C1c2cc3c(cc2C2(CC2)N1CCC1CCN(Cc2c(F)cccc2F)CC1)OCO3 : 249
O=C1c2cc3c(cc2C2(CC2)N1CCC1CCN(Cc2ccccn2)CC1)OCO3 : 903

----------
Assay: in vivo
Details: mouse, in vivo, iv
Measured LD50 of individual entries
metric name: LD50 (mg/kg)

Cl.O=C1c2cc3c(cc2C2(CC2)N1CCC1CCN(Cc2ccccc2)CC1)OCO3 : 20.1
Cl.O=C1c2cc3c(cc2C2(CC2)N1CCC1CCN(Cc2ccccn2)CC1)OCO3 : 31.3
